- TARGET_OF_ASSAY: T1, IL-1beta (UniProt P01584 117-269)
- T1 construct: also called IL-1β
- TEST_NAME: Biacore
READOUT: binding result

BINDER	RESULT
XPA23 Fab, heavy chain G100Q (Fab, V domains shown) VH: EVQLLESGGGLVQPGGSLRLSCAASGFTFSKYFMFWVRQAPGKGLEWVSVISPSGGMTRYADSVKGRFTISRDNSKNTLYLQMNSLRAEDTAVYYCARVQYGGNSDYWGQGTLVTVSS VL: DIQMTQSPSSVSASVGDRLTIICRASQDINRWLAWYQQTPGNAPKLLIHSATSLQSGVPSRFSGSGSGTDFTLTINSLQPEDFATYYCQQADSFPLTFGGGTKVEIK	no binding
XPA23 Fab, heavy chain S105W (Fab, V domains shown) VH: EVQLLESGGGLVQPGGSLRLSCAASGFTFSKYFMFWVRQAPGKGLEWVSVISPSGGMTRYADSVKGRFTISRDNSKNTLYLQMNSLRAEDTAVYYCARVGYGGNWDYWGQGTLVTVSS VL: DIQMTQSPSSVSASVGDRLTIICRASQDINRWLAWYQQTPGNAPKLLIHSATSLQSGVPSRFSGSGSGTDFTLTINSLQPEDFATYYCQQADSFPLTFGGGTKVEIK	no binding
XPA23 Fab, heavy chain G102K (Fab, V domains shown) VH: EVQLLESGGGLVQPGGSLRLSCAASGFTFSKYFMFWVRQAPGKGLEWVSVISPSGGMTRYADSVKGRFTISRDNSKNTLYLQMNSLRAEDTAVYYCARVGYKGNSDYWGQGTLVTVSS VL: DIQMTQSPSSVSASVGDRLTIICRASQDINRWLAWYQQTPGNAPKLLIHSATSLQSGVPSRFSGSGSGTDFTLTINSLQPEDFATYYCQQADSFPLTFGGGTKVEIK	no binding
